Sourced from patent US20260132208A1

# assaySystem: human CCR8 (human, UniProt P51685 1-355)
# assayNotes: cell-based or functional assay
observable: residual hCCL1 (100 nM) Gi2 response, protocol #3, mAb 5 µg/mL

Data request, read-out residual hCCL1 (100 nM) Gi2 response, protocol #3, mAb 5 µg/mL, for anti-CCR8 mAb 1-14 (antibody, V domains shown, Murine hybridoma mAb) VH: QVQLVETGGGLVRPGNSLKLSCVTSGFTFSNYRMHWLRQPPGKRLEWIAVIKVKSDNYGANYAESVKGRFTISRDDSKSSVYLQVNRLREEDTATYYCSSPTYPGSSGFAYWGQGTLVTVSA VL: DIQMTQTTSSLSASLGDRVTISCRASQDISNYLNWYQQKPDGTVKLLIYYTSRLHSGVPSRFSGSGSGTDYSLTISNLEQEDIATYFCQQGNKFPPTFGGGTKLEIN 50%

How about this binder: anti-CCR8 mAb 1-17 (antibody, V domains shown, Murine hybridoma mAb) VH: QVQLQQPGSELVRPGASVKLSCKASGYTFTSYWMHWVKQRPGQGLEWIGNIWPGSASTNYDEKFKNKATLTVDTSSSTAYMQLSSLTSEDSAVYYCIRGGKGAMDYWSQGTSVTVSS VL: DVVMTQIPLSLPVSLGDQASISCRSSQSLENSYGNTYLNWYLQKPGQSPQLLIYRVSNRFSGVLDRFSGSGSGTDFTLKISRVEAEDLGVYFCLQVTHVPPTFGAGTKLELK 45%

Next binder up: anti-CCR8 mAb 1-16 (antibody, V domains shown, Murine hybridoma mAb) VH: EVQLQQSGPELVKPGASVKISCKASVYSFTGSYMHWVKQSHVKSLEWIGRINPYNGATSYNQNFKDKASLTVDKSSSTAYMELHSLTSEDSAVYYCATTLLRLLDYWGQGTTLTVSS VL: DIVMTQAAFSNPVTLGTSASISCRSSKSLLHSNGITYLYWYLQKPGQSPQLLIYQMSNLASGVPDRFSSSGSGTDFTLRISRVEAEDVGVYYCAQNLELPWTFGGGTKLEIK 73%
